tested on: CCRIS mutagenicity, Ames/micronucleus/aberration tests; test: CCRIS mutagenicity studies; conditions: Test System: AMES SALMONELLA TYPHIMURIUM; Strain/Indicator: TA98; Metabolic Activation: NONE; Method: PREINCUBATION
Activity calls are given as the source filed them. How the calls were made is not given here.
Respond only with the outcome that fits, drawn from true = active, false = inactive

Sample answers from the record:
CC1(C)SSC[C@@H](C(=O)O)NC1=O    false
COc1cc2oc(-c3ccc(O)cc3)c(O)c(=O)c2cc1OC    false
Cc1cnc(C)cn1    false
CC(=O)Nc1ccc(Oc2ccc(N(OC(C)=O)C(C)=O)cc2)cc1    true
Cc1cccs1    false
O=[N+]([O-])c1ccc(Br)c([N+](=O)[O-])c1    true
Oc1ccc(O)cc1    true
CC(N)Cc1ccccc1 (stereo not given)    false
CCNc1cc(O)ccc1C    false
O=NN1CCSC1    false

Enquiry: Per the assay record, what outcome was assigned to "CC(C)Sc1cc(Cc2ccc(N)c(SC(C)C)c2)ccc1N" ?
Return: false

Enquiry: Per the assay record, what outcome was assigned to "COP(=O)(OC)OC=C(Cl)Cl" ?
Return: false

Enquiry: Per the assay record, what outcome was assigned to "CC(C)(C#N)N=NC(C)(C)C#N" ?
Return: false

Enquiry: Per the assay record, what outcome was assigned to "O=[N+]([O-])c1ccc(Cl)c(Cl)c1" ?
Return: false

Enquiry: Per the assay record, what outcome was assigned to "CC(=O)Nc1ccc(Oc2ccc(N=O)cc2)cc1" ?
Return: true

* * *

system: CCRIS mutagenicity, Ames/micronucleus/aberration tests; assay: CCRIS mutagenicity studies; settings: Test System: AMES SALMONELLA TYPHIMURIUM; Strain/Indicator: YG1021; Metabolic Activation: NONE; Method: PREINCUBATION
Active and inactive are the calls of the source. How the calls were made is not given here.
Respond only with the outcome that fits, drawn from active, inactive

O=[N+]([O-])c1ccc(CNc2ncnc3nc[nH]c23)cc1    inactive
Nc1ncnc2nc(-c3ccc([N+](=O)[O-])cc3)[nH]c12    active
O=[N+]([O-])c1ccc(Nc2ncnc3nc[nH]c23)cc1    inactive

Here's the next entry for you.
Enquiry: Per the assay record, what outcome was assigned to "Nc1nc(-c2ccc([N+](=O)[O-])cc2)nc2c1ncn2-c1ccc([N+](=O)[O-])cc1" ?
Return: active

* * *

system: CCRIS mutagenicity, Ames/micronucleus/aberration tests; assay: CCRIS mutagenicity studies; details: Test System: AMES SALMONELLA TYPHIMURIUM; Strain/Indicator: TA1535; Metabolic Activation: RAT, LIVER, S-9, AROCLOR 1254 (10 OR 30%); Method: PREINCUBATION
Calls of active or inactive are those of the source. No rule for the calls is given here.
PROPERTY: mutagenic call

CCC[CH2][Sn]([CH2]CCC)([CH2]CCC)[O][Sn]([CH2]CCC)([CH2]CCC)[CH2]CCC    inactive; negative
C[C@]12C/C(=C/O)C(=O)C[C@@H]1CC[C@@H]1[C@@H]2CC[C@@]2(C)[C@H]1CC[C@]2(C)O    inactive; negative
CN(C(=O)CN(CCO)CC(=O)N(C)C(C)(C)Cc1ccccc1)C(C)(C)Cc1ccccc1    inactive; negative
COC(C)=O    inactive; negative

So for "CC(=O)Nc1ccc(C)cc1" , the logged mutagenic call turned out to be inactive; negative

So for "N#CCCO" , the logged mutagenic call turned out to be inactive; negative

So for "Clc1ccc(C(c2ccc(Cl)cc2)C(Cl)(Cl)Cl)cc1" , the logged mutagenic call turned out to be inactive; negative

So for "CC(C)O" , the logged mutagenic call turned out to be inactive; negative

So for "COC(=O)C1=C(C)NC(C)=C(C(=O)OC)C1c1ccccc1[N+](=O)[O-]" , the logged mutagenic call turned out to be inactive; negative

So for "COC(=O)[C@H]1[C@H]2C[C@@H]3c4[nH]c5cc(OC)ccc5c4CCN3C[C@H]2C[C@@H](OC(=O)c2cc(OC)c(OC)c(OC)c2)[C@@H]1OC" , the logged mutagenic call turned out to be inactive; negative

So for "CCCCCCCCCC(=O)O" , the logged mutagenic call turned out to be inactive; negative

* * *

system: CCRIS mutagenicity, Ames/micronucleus/aberration tests; assay: CCRIS mutagenicity studies; conditions: Test System: AMES SALMONELLA TYPHIMURIUM; Strain/Indicator: TA97; Metabolic Activation: RAT, LIVER, S-9, AROCLOR 1254 (10%); Method: PREINCUBATION
The source made the active and inactive calls. How the calls were made is not given here.
Respond only with the outcome that fits, drawn from Y for active, N for inactive

Sample answers from the record:
CC(C)(C)c1cc(O)ccc1O    N
O=P(OC(CCl)CCl)(OC(CCl)CCl)OC(CCl)CCl    N
CCC1NC(=O)c2cc(S(N)(=O)=O)c(Cl)cc2N1 (stereo unspecified)    N
COC(=O)c1ccc(/C=N/n2nnc3c([nH]c4ccccc43)c2=O)cc1    Y
Nc1ccc(N)c2c1C(=O)c1c(N)ccc(N)c1C2=O    N

Here's the next entry for you.
Enquiry: Per the assay record, what outcome was assigned to "CCCCCCCCCCCC[S][Sn]([CH2]CCC)([CH2]CCC)[S]CCCCCCCCCCCC" ?
Return: N

* * *

test system: CCRIS mutagenicity, Ames/micronucleus/aberration tests; experiment: CCRIS mutagenicity studies; details: Test System: AMES SALMONELLA TYPHIMURIUM; Strain/Indicator: TA98; Metabolic Activation: NONE; Method: STANDARD PLATE
Activity calls are given as the source filed them. How the calls were made is not given here.
Respond only with the outcome that fits, drawn from TRUE for active, FALSE for inactive

O=[N+]([O-])c1ccc2c(c1)CCc1cc([N+](=O)[O-])ccc1-2    TRUE
C=C(C)C(=O)OCCCC    FALSE
O=C/C(=C(\Cl)C(=O)O)C(Cl)Cl    FALSE
ClCCNCCCNc1c2ccccc2nc2ccccc12    TRUE

Enquiry: Per the assay record, what outcome was assigned to "O=C(Nc1ccc(Br)cc1)c1cc(Br)cc(Br)c1O" ?
Return: FALSE

Enquiry: Per the assay record, what outcome was assigned to "COc1cc(O)c2c(c1)C(=O)c1cc(C)cc(O)c1C2=O" ?
Return: FALSE

Enquiry: Per the assay record, what outcome was assigned to "[Cl][Pt][Cl].c1cc2c3c(c1)CCCN3CCC2" ?
Return: FALSE

Enquiry: Per the assay record, what outcome was assigned to "COc1ccc2c(c1)[C@H]1CCCC[C@@H]1[C@H]1O[C@@H]21" ?
Return: FALSE

Enquiry: Per the assay record, what outcome was assigned to "Nc1ccc(N)c2c1C(=O)c1c(N)ccc(N)c1C2=O" ?
Return: FALSE

Enquiry: Per the assay record, what outcome was assigned to "CCCN(CCC)CCc1cccc2[nH]c3c(C)ccc(C)c3c12" ?
Return: FALSE

Enquiry: Per the assay record, what outcome was assigned to "O=[N+]([O-])c1cccc(OS(=O)(=O)c2cccc3cccnc23)c1" ?
Return: FALSE

Enquiry: Per the assay record, what outcome was assigned to "COP(=S)(OC)Oc1ccc(Sc2ccc(OP(=S)(OC)OC)cc2)cc1" ?
Return: FALSE

* * *

system: CCRIS mutagenicity, Ames/micronucleus/aberration tests; test: CCRIS mutagenicity studies; settings: Test System: AMES SALMONELLA TYPHIMURIUM; Strain/Indicator: TA98; Metabolic Activation: NONE; Method: STANDARD PLATE
Active and inactive are the calls of the source. How the calls were made is not given here.
PROPERTY: mutagenic call

Example cases with answers are listed next.
CC1=CC=C(C(C)C)CC1    inactive; negative
c1ccc2cc3c(ccc4ccccc43)cc2c1    inactive; negative
c1ccc2c(c1)c1cccc3ccc4cccc2c4c31    inactive; negative
O=C(c1ccccc1)C1OC1c1ccc(Oc2ccccc2)cc1 (stereo not drawn)    inactive; negative
c1ccc(NNc2ccccc2)cc1    inactive; negative
O=[N+]([O-])c1ccc2ccc3cc4ccccc4c4ccc1c2c34    active; positive
O=Nc1ccc2ccc3cc4ccccc4c4ccc1c2c34    active; positive
O=c1c2ccccc2[nH]c2occc12    inactive; negative

So for "O=c1oc2c([N+](=O)[O-])cccc2c2ccccc12" , the logged mutagenic call turned out to be active; positive

So for "C=CCCCCCCCCCCCCC" , the logged mutagenic call turned out to be inactive; negative

So for "CC(=O)Nc1ccc(N=Nc2cc(C)ccc2O)cc1" , the logged mutagenic call turned out to be active; positive

So for "CNCCCN1c2ccccc2CCc2ccccc21" , the logged mutagenic call turned out to be inactive; negative

So for "c1ccc2c(c1)cc1c3c2ccc2cccc(c23)C1" , the logged mutagenic call turned out to be inactive; negative

* * *

Tested on: CCRIS mutagenicity, Ames/micronucleus/aberration tests
Experiment: CCRIS mutagenicity studies
Conditions: Test System: AMES SALMONELLA TYPHIMURIUM; Strain/Indicator: TA1538; Metabolic Activation: RAT LIVER S-9, PHENOBARBITAL AND BETA-NAPHTHOFLAVONE; Method: PREINCUBATION
Excerpt: The CCRIS database contains chemical records with carcinogenicity, mutagenicity, tumor promotion, and tumor inhibition test results. It was developed by the National Cancer Institute (NCI). Data are derived from studies cited in primary journals, current awareness tools, NCI reports, and other sources. Test results have been reviewed by experts in carcinogenesis and mutagenesis. CCRIS provides historical information from the years 1985 - 2011. It is no longer updated. […]
Calls of active or inactive are those of the source. No rule for the calls is given here.
Respond only with the outcome that fits, drawn from active, inactive

c1ccc2cc3ccccc3cc2c1    inactive
Cc1cccc(O)c1C    inactive
CC(C)(C#N)N=NC(C)(C)C#N    inactive
O=C(ON=C1C=CC(=NOC(=O)c2ccccc2)C=C1)c1ccccc1    active
[Cl][Ti]([Cl])[Cl]    inactive
O=NN1CN2CN(C1)CN(N=O)C2    inactive

Enquiry: Per the assay record, what outcome was assigned to "CC(C)(c1ccccc1)c1ccc(O)cc1" ?
Return: inactive

Enquiry: Per the assay record, what outcome was assigned to "O=[N+]([O-])c1cccc2c([N+](=O)[O-])cccc12" ?
Return: active

Enquiry: Per the assay record, what outcome was assigned to "[O]=[W](=[O])([OH])[OH]" ?
Return: inactive

These measurements were taken from PubChem BioAssay AID1259407.
